combination Emax values by entry
- Tested on: NB14 (Neuroblastoma)
- Assay Method Text: combination Emax (second highest fraction inhibited in the dose matrix, 72 h); higher = more inhibition; extreme values may be limits of the assay
Metric Name: combination Emax

Compound: COc1cccc(OCCCN)c1-c1cc(Nc2cnc(C#N)cn2)n[nH]1 [Prexasertib] + C[C@@H]1COCCN1C2=NC(=NC(=C2)C3(CC3)[S@](=N)(=O)C)C4=C5C=CNC5=NC=C4 [AZD6738] (first compound max 1 µM, 7x7, partner max 10 µM)
Measured Value: 1
--
Compound: Cn1cnc2c(F)c(Nc3ccc(Br)cc3Cl)c(C(=O)NOCCO)cc21 [Selumetinib] + CC(C)n1c(=O)n(C)c2cnc3cc(F)c(-c4ccc(OCCCN5CCCCC5)nc4)cc3c21 [AZD1390] (first compound max 10 µM, 7x7, partner max 0.3 µM)
Measured Value: 0.241
--
Compound: C[C@@H](Nc1cc(F)cc(F)c1)c1cc(C(=O)N(C)C)cc2c(=O)cc(N3CCOCC3)oc12 [AZD8186] + CC(=O)c1c(C)c2cnc(Nc3ccc(N4CCNCC4)cn3)nc2n(C2CCCC2)c1=O [Palbociclib] (first compound max 10 µM, 7x7, partner max 10 µM)
Measured Value: 0.536
--
Compound: CN(C)CCCOc1ccc(-c2ccc3ncc4c(c3c2)n(C2CCOCC2)c(=O)n4C)cn1 [AZD0156] + CCN(CCO)CCCOc1ccc2c(Nc3cc(CC(=O)Nc4cccc(F)c4)[nH]n3)ncnc2c1 [AZD2811] (first compound max 1 µM, 7x7, partner max 1 µM)
Measured Value: 0.857
--
Compound: C=CCn1c(=O)c2cnc(Nc3ccc(N4CCN(C)CC4)cc3)nc2n1-c1cccc(C(C)(C)O)n1 [AZD1775] + C1CN(CCC1(C(=O)N[C@@H](CCO)C2=CC=C(C=C2)Cl)N)C3=NC=NC4=C3C=CN4 [Capivasertib] (first compound max 3 µM, partner max 3 µM)
Measured Value: 0.98
--
Compound: C=CCn1c(=O)c2cnc(Nc3ccc(N4CCN(C)CC4)cc3)nc2n1-c1cccc(C(C)(C)O)n1 [AZD1775] + O=C(c1cc(Cc2n[nH]c(=O)c3ccccc23)ccc1F)N1CCN(C(=O)C2CC2)CC1 [Olaparib] (first compound max 1 µM, partner max 10 µM)
Measured Value: 0.986
--
Compound: CCN(CCO)CCCOc1ccc2c(Nc3cc(CC(=O)Nc4cccc(F)c4)[nH]n3)ncnc2c1 [AZD2811] + C[C@@H]1COCCN1C2=NC(=NC(=C2)C3(CC3)[S@](=N)(=O)C)C4=C5C=CNC5=NC=C4 [AZD6738] (first compound max 1 µM, 7x7, partner max 10 µM)
Measured Value: 0.998
--
Compound: COc1nnc2ccc(N3CCC(c4ccc(OCCN5CCN(C)C(=O)[C@H]5C)cc4)CC3)nn12 [AZD5153] + Cn1cnc2c(F)c(Nc3ccc(Br)cc3Cl)c(C(=O)NOCCO)cc21 [Selumetinib] (first compound max 1 µM, 7x7, partner max 10 µM)
Measured Value: 0.892
--
Compound: CN(CCO)CC[C@H](CSc1ccccc1)Nc1ccc(S(=O)(=O)NC(=O)c2ccc(N3CCC([C@@H](O)c4ccccc4-c4ccc(Cl)cc4)CC3)cc2)cc1S(=O)(=O)C(F)(F)F [AZD4320] + Nc1ccn([C@@H]2O[C@H](CO)[C@@H](O)C2(F)F)c(=O)n1 [Gemcitabine] (first compound max 1 µM, 7x7, partner max 0.3 µM)
Measured Value: 0.993
